System: hT40, dGA, dGAE and truncated tau fragments
protocol: Binding ELISA / epitope mapping of anti-tau scAbs with truncated tau proteins and 13mer peptides
Set-up: species or system human
measurement_conditions: Table 17; 'C' group scAbs; incl. 13mer peptides
property: Shortest region bound on hT40

Here are 3 molecules together with their reported answers.
molecule: CA7: anti-tau clone, Table 10; VH SEQ ID NO: 503, VL 504 (antibody, V domains shown, CA7 VH Domain; CA7 VL Domain) VH: RVRLQGSGPSLVKPSQTLSLTCTVSGFSFDSYYVGWVRQAPGKALEWLGNIYSTGRAFYNPALKSRLSITRDTSKSQVSLSVSSVTIEDTALYYCVRGSYYHGGGNGMVDFFDYWSPGLLVTVSS VL: QVVRTQPSSVSGSLGQRVSITCSGSSSNVGYGNYVGWFQQVPGSAPKLLIYAATSRASGVPDRFSGSRSGNTATLTIDSLQAEDEADYYCSSYQRGNTGVFGSGTRLTVLG
Shortest region bound on hT40: 1-319
//
molecule: CE2: anti-tau core clone, Table 10; SEQ ID NO: 366 (protein, CE2/E1B8 amino acid sequence) scFv: QVQLQESGPSLVKPSQTLSLTCTVSGFSLTNYPVGWVRQAPGKALEWIGNIENDGSANYASALKSRLSITRDTSKNQVSLSLSSATTEDTAVYYCGREFGGSDGYTYFVDIDYWGPGLLVTVSSEGKSSGASGESKVDDQAVLTQPSSVSKSLGQSVSITCSGSSSNVGYGNYVSWFQQVPGSAPKILIYGATSRASGVPDRFSGSRSGNTATLTITSLQAEDEADYYCASYDGSSSGVFGSGTRLTVLG
Shortest region bound on hT40: 319-331
//
molecule: CA4: anti-tau core clone, Table 10; SEQ ID NO: 368 (protein, CA4 amino acid sequence) scFv: QVQLQESGPSLVKPSQTLSLTCTVSGFSLTSYSVYWVRQAPGQALEWISIMYASGRVDYNPALKSRLSITRDTSKSQFSLSLSSVTTEDTAVYYCTRGIENWGPGLLVTVSSEGKSSGASGESKVDDDIQVTQSPSSLSASLTERVSITCRTSQSVNNYLSWYQQKPGQAPKLLIYYATRLYTDVPSRFSGSGSGTDYTLTITSLEADDTATYYCLQYDSTPLAFGGGTNVEIK
Shortest region bound on hT40: 355-367

For reference, reported Shortest region bound on hT40 for CA12: anti-tau clone, Tables 2 and 10; SEQ ID NO: 372 (protein, CA12 amino acid sequence) QVQLQGSGPSLVKPSQTLSLTCTVSGFSFDSYYVGWVRQAPGKALEWLGNIYSTGRAFYNPALKSRLSITRDTSKSQVSLSVSSVTIEDTALYYCVRGSYYHGGGNGMVDFFDYWSPGLLVTVSSEGKSSGASGESKVDDQVVRTQPSSVSGSLGQRVSITCSGSSSNVGYGNYVGWFQQVPGSAPKLLIYAATSRASGVPDRFSGSRSGNTATLTIDSLQAEDEADYYCSSYQRGNTGVFGSGTRLTVLG stands at 367-379

Numbers sourced from patent US20250355001A1.
